system tested: EGFR (human) (UniProt P00533)
Sequence (P00533 whole entry, looked up): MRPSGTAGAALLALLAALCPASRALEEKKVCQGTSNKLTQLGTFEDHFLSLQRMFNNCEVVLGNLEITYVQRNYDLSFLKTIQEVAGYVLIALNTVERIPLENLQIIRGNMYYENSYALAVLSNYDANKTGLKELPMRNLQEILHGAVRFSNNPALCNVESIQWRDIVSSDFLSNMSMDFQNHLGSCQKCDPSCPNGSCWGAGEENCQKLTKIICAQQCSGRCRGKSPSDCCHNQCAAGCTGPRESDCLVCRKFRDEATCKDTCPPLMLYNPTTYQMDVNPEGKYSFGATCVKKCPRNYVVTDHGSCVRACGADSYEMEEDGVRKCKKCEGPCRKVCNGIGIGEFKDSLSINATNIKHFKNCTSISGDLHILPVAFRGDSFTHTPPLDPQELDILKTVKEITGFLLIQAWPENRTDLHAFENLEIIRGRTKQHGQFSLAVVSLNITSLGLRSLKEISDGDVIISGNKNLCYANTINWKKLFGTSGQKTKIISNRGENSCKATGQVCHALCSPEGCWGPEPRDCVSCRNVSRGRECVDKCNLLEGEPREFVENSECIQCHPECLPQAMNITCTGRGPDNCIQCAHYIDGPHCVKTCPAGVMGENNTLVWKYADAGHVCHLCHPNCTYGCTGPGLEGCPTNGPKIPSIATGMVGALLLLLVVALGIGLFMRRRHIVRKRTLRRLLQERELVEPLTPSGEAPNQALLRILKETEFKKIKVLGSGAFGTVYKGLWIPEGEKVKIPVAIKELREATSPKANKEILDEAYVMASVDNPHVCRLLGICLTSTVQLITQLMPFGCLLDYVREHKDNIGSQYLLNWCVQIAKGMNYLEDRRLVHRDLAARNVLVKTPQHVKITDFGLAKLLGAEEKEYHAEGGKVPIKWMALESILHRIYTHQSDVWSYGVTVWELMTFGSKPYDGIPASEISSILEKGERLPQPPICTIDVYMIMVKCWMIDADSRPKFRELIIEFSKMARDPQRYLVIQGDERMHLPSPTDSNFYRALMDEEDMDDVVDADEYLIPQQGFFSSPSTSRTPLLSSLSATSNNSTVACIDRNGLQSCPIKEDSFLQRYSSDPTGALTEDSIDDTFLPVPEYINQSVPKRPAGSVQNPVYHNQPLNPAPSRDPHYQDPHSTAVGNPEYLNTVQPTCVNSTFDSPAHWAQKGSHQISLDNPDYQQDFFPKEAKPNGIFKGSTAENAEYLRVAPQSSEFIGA
test conditions: 3t3
Examples of molecules with documented IC50 follow.
measured quantity: IC50

{"entry smiles": "CCOc1cc2c(Nc3ccc4cn[nH]c4c3)c(C#N)cnc2cc1OC", "result": "3.22 µg/mL"}
{"entry smiles": "CCOc1cc2ncc(C#N)c(Nc3ccc4c(=O)[nH][nH]c(=O)c4c3)c2cc1OCC", "result": "> 5 µg/mL"}
{"entry smiles": "CCOc1cc2ncc(C#N)c(Nc3ccc4[nH]c(=O)oc(=O)c4c3)c2cc1OCC", "result": "> 5 µg/mL"}

----------
system tested: EGFR (human) (UniProt P00533)
test conditions: sk-br-3
Examples of compounds with documented IC50 follow.
measured quantity: IC50 (µg/mL)

{"entry smiles": "CCOc1cc2ncc(C#N)c(Nc3ccc4cn[nH]c4c3)c2cc1OCC", "system tested": "EGFR (human) (UniProt P00533)", "measured quantity": "IC50", "comparison sign": "=", "result number": 0.016}
{"entry smiles": "CCOc1cc2ncc(C#N)c(Nc3ccc4c(c3)S(=O)(=O)C=C4)c2cc1OCC", "system tested": "EGFR (human) (UniProt P00533)", "measured quantity": "IC50", "comparison sign": "=", "result number": 0.336}
{"entry smiles": "CCOc1cc2ncc(C#N)c(Nc3ccc4c(c3)C(=O)OC4)c2cc1OCC", "system tested": "EGFR (human) (UniProt P00533)", "measured quantity": "IC50", "comparison sign": ">", "result number": 5}
{"entry smiles": "CCOc1cc2ncc(C#N)c(Nc3ccc4c(C)cc(=O)oc4c3)c2cc1OCC", "system tested": "EGFR (human) (UniProt P00533)", "measured quantity": "IC50", "comparison sign": "=", "result number": 0.429}
{"entry smiles": "COCCOc1cc2ncc(C#N)c(Nc3ccc4cn[nH]c4c3)c2cc1OCCOC", "system tested": "EGFR (human) (UniProt P00533)", "measured quantity": "IC50", "comparison sign": ">", "result number": 5}
{"entry smiles": "CCOc1cc2ncc(C#N)c(Nc3ccc4c(c3)OCCO4)c2cc1OCC", "system tested": "EGFR (human) (UniProt P00533)", "measured quantity": "IC50", "comparison sign": "=", "result number": 0.281}
{"entry smiles": "CCOc1cc2ncc(C#N)c(Nc3ccc4c[nH]nc4c3)c2cc1OC", "system tested": "EGFR (human) (UniProt P00533)", "measured quantity": "IC50", "comparison sign": "=", "result number": 0.022}
{"entry smiles": "CCOc1cc2ncc(C#N)c(Nc3ccc4c(=O)[nH][nH]c(=O)c4c3)c2cc1OCC", "system tested": "EGFR (human) (UniProt P00533)", "measured quantity": "IC50", "comparison sign": ">", "result number": 5}
{"entry smiles": "CCOc1cc2ncc(C#N)c(Nc3ccc4c(c3)CCC4)c2cc1OCC", "system tested": "EGFR (human) (UniProt P00533)", "measured quantity": "IC50", "comparison sign": ">", "result number": 0.294}
{"entry smiles": "CCOc1cc2ncc(C#N)c(Nc3ccc4c(c3)CCC4=O)c2cc1OCC", "system tested": "EGFR (human) (UniProt P00533)", "measured quantity": "IC50", "comparison sign": "=", "result number": 0.0281}
{"entry smiles": "CCOc1cc2ncc(C#N)c(Nc3ccc4c(c3)C(=O)NCC(=O)N4C)c2cc1OCC", "system tested": "EGFR (human) (UniProt P00533)", "measured quantity": "IC50", "comparison sign": ">", "result number": 5}
{"entry smiles": "CCOc1cc2ncc(C#N)c(Nc3ccc4[nH]c(=O)oc(=O)c4c3)c2cc1OCC", "system tested": "EGFR (human) (UniProt P00533)", "measured quantity": "IC50", "comparison sign": ">", "result number": 5}
{"entry smiles": "CCOc1cc2c(Nc3ccc4cn[nH]c4c3)c(C#N)cnc2cc1OC", "system tested": "EGFR (human) (UniProt P00533)", "measured quantity": "IC50", "comparison sign": "=", "result number": 2.09}
